Reported IC50 values for a set of compounds
# target.entity: ROS1-G2032R (Homo sapiens, UniProt P08922, G2032R)
# Sequence (P08922 28-2347 G2032R): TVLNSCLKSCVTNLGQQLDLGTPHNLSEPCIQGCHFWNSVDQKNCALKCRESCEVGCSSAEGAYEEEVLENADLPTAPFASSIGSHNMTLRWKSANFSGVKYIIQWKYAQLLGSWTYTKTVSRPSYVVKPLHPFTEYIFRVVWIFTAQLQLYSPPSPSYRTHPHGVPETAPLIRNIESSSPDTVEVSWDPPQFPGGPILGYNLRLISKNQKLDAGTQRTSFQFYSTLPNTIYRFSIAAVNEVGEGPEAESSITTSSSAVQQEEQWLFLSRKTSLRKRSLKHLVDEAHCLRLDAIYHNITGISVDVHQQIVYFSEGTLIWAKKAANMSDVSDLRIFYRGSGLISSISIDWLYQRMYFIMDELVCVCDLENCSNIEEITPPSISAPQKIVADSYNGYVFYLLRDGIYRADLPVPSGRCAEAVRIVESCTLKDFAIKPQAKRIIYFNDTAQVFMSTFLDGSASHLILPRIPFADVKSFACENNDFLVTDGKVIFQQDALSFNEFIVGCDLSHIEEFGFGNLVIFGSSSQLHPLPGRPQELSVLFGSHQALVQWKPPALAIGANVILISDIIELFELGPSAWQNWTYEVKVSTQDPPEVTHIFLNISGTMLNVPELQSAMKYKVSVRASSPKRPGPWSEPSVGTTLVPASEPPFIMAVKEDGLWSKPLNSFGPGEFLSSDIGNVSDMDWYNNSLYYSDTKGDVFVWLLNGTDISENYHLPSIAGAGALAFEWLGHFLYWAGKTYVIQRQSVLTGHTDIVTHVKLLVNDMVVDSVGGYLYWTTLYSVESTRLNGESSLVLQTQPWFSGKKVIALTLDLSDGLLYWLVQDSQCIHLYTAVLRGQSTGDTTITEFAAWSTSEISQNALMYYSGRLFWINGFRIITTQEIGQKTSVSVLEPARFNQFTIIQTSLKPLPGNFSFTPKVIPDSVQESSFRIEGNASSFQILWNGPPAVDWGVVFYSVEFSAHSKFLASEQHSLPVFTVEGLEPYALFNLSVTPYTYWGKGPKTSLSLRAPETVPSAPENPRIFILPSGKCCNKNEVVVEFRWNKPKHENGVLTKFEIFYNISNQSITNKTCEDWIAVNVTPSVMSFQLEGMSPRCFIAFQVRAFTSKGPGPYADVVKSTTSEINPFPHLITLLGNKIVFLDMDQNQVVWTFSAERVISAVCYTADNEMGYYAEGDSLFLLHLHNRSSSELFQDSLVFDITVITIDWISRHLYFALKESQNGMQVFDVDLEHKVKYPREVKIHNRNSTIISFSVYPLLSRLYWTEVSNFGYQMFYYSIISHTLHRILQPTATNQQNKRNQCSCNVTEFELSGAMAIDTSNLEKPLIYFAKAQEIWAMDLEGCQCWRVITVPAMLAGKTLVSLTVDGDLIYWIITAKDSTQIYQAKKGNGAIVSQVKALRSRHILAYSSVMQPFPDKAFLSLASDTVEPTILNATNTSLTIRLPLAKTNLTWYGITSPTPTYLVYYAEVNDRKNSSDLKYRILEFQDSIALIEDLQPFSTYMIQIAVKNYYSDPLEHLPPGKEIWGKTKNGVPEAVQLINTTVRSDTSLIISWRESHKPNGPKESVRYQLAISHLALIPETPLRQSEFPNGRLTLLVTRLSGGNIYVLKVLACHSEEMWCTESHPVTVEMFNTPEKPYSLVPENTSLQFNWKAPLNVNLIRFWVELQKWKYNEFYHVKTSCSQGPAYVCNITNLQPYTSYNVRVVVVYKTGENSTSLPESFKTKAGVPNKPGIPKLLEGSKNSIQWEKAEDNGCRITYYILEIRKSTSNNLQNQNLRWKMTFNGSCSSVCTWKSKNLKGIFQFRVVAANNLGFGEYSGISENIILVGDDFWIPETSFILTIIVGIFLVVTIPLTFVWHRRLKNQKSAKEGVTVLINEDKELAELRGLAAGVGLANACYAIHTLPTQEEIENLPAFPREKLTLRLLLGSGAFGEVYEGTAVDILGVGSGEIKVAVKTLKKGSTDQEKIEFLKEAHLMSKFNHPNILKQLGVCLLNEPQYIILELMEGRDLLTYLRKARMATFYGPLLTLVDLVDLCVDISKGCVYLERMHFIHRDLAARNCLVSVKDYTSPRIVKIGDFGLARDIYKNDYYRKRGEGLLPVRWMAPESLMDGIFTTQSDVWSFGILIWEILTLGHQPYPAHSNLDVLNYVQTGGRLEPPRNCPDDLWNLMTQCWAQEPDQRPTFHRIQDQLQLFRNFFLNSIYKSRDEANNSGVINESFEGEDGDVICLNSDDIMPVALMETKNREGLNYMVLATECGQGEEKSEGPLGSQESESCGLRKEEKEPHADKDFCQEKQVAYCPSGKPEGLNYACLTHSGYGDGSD
# assay.protocol: Kinase inhibitory activity (33P-ATP filter-binding) on mutant ROS1-G2032R
# condition.info: read-out: Kinase half inhibitory concentration IC50, ROS1-G2032R
Express the result in nM but write the number alone.

* N#Cc1nn2ccc3nc2c1C(=O)NC1(CC1)COc1ncc(F)cc1[C@H]1CCON31 | 0.3
* CC1COc2ncc(F)cc2C2CCON2c2ccn3nc(C#N)c(c3n2)C(=O)N1 (stereo not drawn) | 0.7

Now for a further compound.
Need IC50, item N#Cc1nn2ccc3nc2c1C(=O)NC1CC(C1)Oc1ncc(F)cc1C1CCON31 (stereo not drawn) [WX-002B] 0.1
